# Protocol Text: Phase I dose-escalating study, plasma pharmacokinetics in patients with solid tumor
# Assay type: in vivo, human
# Condition Details: human, plasma, 100 mg QD, 100 mg QD Continuous (n = 4), nominal time 4 h; read-out: Mean plasma concentration following the last dose on cycle 1 day 28
Measure: concentration at 4 h (ng/mL)
The answer is to be given in ng/mL; state only the numeric part.

## Input Supply recorded concentration at 4 h for Cc1[nH]c(/C=C2\C(=O)Nc3ccc(F)cc32)c(C)c1C(=O)NC[C@H](O)CN1CCOCC1 here.
## Output 560

###

# Protocol Text: Phase I dose-escalating study, plasma pharmacokinetics in patients with solid tumor
# Format: in vivo, human
# Condition Details: human, plasma, 25 mg, 25 mg QD (4/1), C1D1 (n = 6), plasma; read-out: tmax, mean (% CV)
Measure: Tmax (h)
The answer is to be given in h; state only the numeric part.

## Input Supply recorded Tmax for Cc1[nH]c(/C=C2\C(=O)Nc3ccc(F)cc32)c(C)c1C(=O)NC[C@H](O)CN1CCOCC1 here.
## Output 2.8

###

# Protocol Text: Phase I dose-escalating study, plasma pharmacokinetics in patients with solid tumor
# Assay type: in vivo, human
# Condition Details: human, plasma, 150 mg QD, 150 mg QD Continuous (n = 6), nominal time 3 h; read-out: Mean plasma concentration following the last dose on cycle 1 day 28
Measure: concentration at 3 h (ng/mL)
The answer is to be given in ng/mL; state only the numeric part.

## Input Supply recorded concentration at 3 h for Cc1[nH]c(/C=C2\C(=O)Nc3ccc(F)cc32)c(C)c1C(=O)NC[C@H](O)CN1CCOCC1 here.
## Output 407

###

# Protocol Text: Phase I dose-escalating study, plasma pharmacokinetics in patients with solid tumor
# Assay type: in vivo, human
# Condition Details: human, plasma, 25 mg, 25 mg QD 4/1 (n = 6), nominal time 3 h; read-out: Mean plasma concentration following the last dose on cycle 1 day 28
Measure: concentration at 3 h (ng/mL)
The answer is to be given in ng/mL; state only the numeric part.

## Input Supply recorded concentration at 3 h for Cc1[nH]c(/C=C2\C(=O)Nc3ccc(F)cc32)c(C)c1C(=O)NC[C@H](O)CN1CCOCC1 [compound 1] here.
## Output 47

###

# Protocol Text: Phase I dose-escalating study, plasma pharmacokinetics in patients with solid tumor
# Type: in vivo, human
# Condition Details: human, plasma, 150 mg QD, 150 mg QD Continuous (n = 6), nominal time 4 h; read-out: Mean plasma concentration following the last dose on cycle 1 day 28
# Method: Cmax values, or maximum total plasma concentrations, of a compound of formula 1 can be measured according to techniques well known to those skilled in the art. For example, after a compound of formula 1 has been administered to a mammal, blood samples can be taken at fixed time points over a period of time (e.g. 24 hours) and the serum or plasma concentration of compound of formula 1 can be measured using standard analytical techniques known in the art. […]
Measure: concentration at 4 h

## Input Supply recorded concentration at 4 h for Cc1[nH]c(/C=C2\C(=O)Nc3ccc(F)cc32)c(C)c1C(=O)NC[C@H](O)CN1CCOCC1 here.
## Output 519 ng/mL

###

# Protocol Text: Phase I dose-escalating study, plasma pharmacokinetics in patients with solid tumor
# Assay type: in vivo, human
# Condition Details: human, plasma, 200 mg QD, 200 mg QD 4/1 (n = 5), nominal time 4 h; read-out: Mean plasma concentration following the last dose on cycle 1 day 28
Measure: concentration at 4 h
Please report the result as a number followed by the unit.

## Input Supply recorded concentration at 4 h for Cc1[nH]c(/C=C2\C(=O)Nc3ccc(F)cc32)c(C)c1C(=O)NC[C@H](O)CN1CCOCC1 here.
## Output 441 ng/mL

###

# Protocol Text: Phase I dose-escalating study, plasma pharmacokinetics in patients with solid tumor
# Assay type: in vivo, human
# Condition Details: human, plasma, 25 mg, 25 mg QD 4/1 (n = 6), nominal time 24 h; read-out: Mean plasma concentration following the last dose on cycle 1 day 28
Measure: concentration at 24 h (ng/mL)
The answer is to be given in ng/mL; state only the numeric part.

## Input Supply recorded concentration at 24 h for Cc1[nH]c(/C=C2\C(=O)Nc3ccc(F)cc32)c(C)c1C(=O)NC[C@H](O)CN1CCOCC1 [compound 1] here.
## Output 21.1

###

# Protocol Text: Phase I dose-escalating study, plasma pharmacokinetics in patients with solid tumor
# Type: in vivo, human
# Condition Details: human, plasma, 250 mg, 250 mg QD (4/1), C2D28 (n = 4), plasma; read-out: Cmax, mean (% CV)
Measure: Cmax (ng/mL)
The answer is to be given in ng/mL; state only the numeric part.

## Input Supply recorded Cmax for Cc1[nH]c(/C=C2\C(=O)Nc3ccc(F)cc32)c(C)c1C(=O)NC[C@H](O)CN1CCOCC1 [compound 1] here.
## Output 748

###

# Protocol Text: Phase I dose-escalating study, plasma pharmacokinetics in patients with solid tumor
# Assay type: in vivo, human
# Condition Details: human, plasma, 150 mg QD, 150 mg QD Continuous (n = 6), nominal time 8 h; read-out: Mean plasma concentration following the last dose on cycle 1 day 28
Measure: concentration at 8 h (ng/mL)
The answer is to be given in ng/mL; state only the numeric part.

## Input Supply recorded concentration at 8 h for Cc1[nH]c(/C=C2\C(=O)Nc3ccc(F)cc32)c(C)c1C(=O)NC[C@H](O)CN1CCOCC1 here.
## Output 404

###

# Protocol Text: Phase I dose-escalating study, plasma pharmacokinetics in patients with solid tumor
# Assay type: in vivo, human
# Condition Details: human, plasma, 50 mg, 50 mg QD (4/1), C1D28 (n = 5), plasma; read-out: C(trough, 24 h), mean (% CV)
Measure: concentration at 24 h (ng/mL)
The answer is to be given in ng/mL; state only the numeric part.

## Input Supply recorded concentration at 24 h for Cc1[nH]c(/C=C2\C(=O)Nc3ccc(F)cc32)c(C)c1C(=O)NC[C@H](O)CN1CCOCC1 here.
## Output 50.8

###

# Protocol Text: Phase I dose-escalating study, plasma pharmacokinetics in patients with solid tumor
# Assay type: in vivo, human
# Condition Details: human, plasma, 50 mg QD, 50 mg QD 4/1 (n = 5), nominal time 3 h; read-out: Mean plasma concentration following the last dose on cycle 1 day 28
Measure: concentration at 3 h

## Input Supply recorded concentration at 3 h for Cc1[nH]c(/C=C2\C(=O)Nc3ccc(F)cc32)c(C)c1C(=O)NC[C@H](O)CN1CCOCC1 here.
## Output 85.6 ng/mL

###

# Protocol Text: Phase I dose-escalating study, plasma pharmacokinetics in patients with solid tumor
# Assay type: in vivo, human
# Condition Details: human, plasma, 150 mg, 150 mg QD (4/1), C2D28 (n = 4), plasma; read-out: AUC(0-24), mean (% CV)
Measure: AUC(0-t) (ng·h/mL)
The answer is to be given in ng·h/mL; state only the numeric part.

## Input Supply recorded AUC(0-t) for Cc1[nH]c(/C=C2\C(=O)Nc3ccc(F)cc32)c(C)c1C(=O)NC[C@H](O)CN1CCOCC1 here.
## Output 3090

###

# Protocol Text: Phase I dose-escalating study, plasma pharmacokinetics in patients with solid tumor
# Type: in vivo, human
# Condition Details: human, plasma, 50 mg QD, 50 mg QD 4/1 (n = 5), nominal time 8 h; read-out: Mean plasma concentration following the last dose on cycle 1 day 28
Measure: concentration at 8 h (ng/mL)
The answer is to be given in ng/mL; state only the numeric part.

## Input Supply recorded concentration at 8 h for Cc1[nH]c(/C=C2\C(=O)Nc3ccc(F)cc32)c(C)c1C(=O)NC[C@H](O)CN1CCOCC1 [compound 1] here.
## Output 68.6

###

# Protocol Text: Phase I dose-escalating study, plasma pharmacokinetics in patients with solid tumor
# Format: in vivo, human
# Condition Details: human, plasma, 200 mg, 200 mg QD 4/1 (n = 5), nominal time 96 h; read-out: Mean plasma concentration following the last dose on cycle 1 day 28
Measure: concentration at 96 h

## Input Supply recorded concentration at 96 h for Cc1[nH]c(/C=C2\C(=O)Nc3ccc(F)cc32)c(C)c1C(=O)NC[C@H](O)CN1CCOCC1 here.
## Output 13 ng/mL

###

# Protocol Text: Phase I dose-escalating study, plasma pharmacokinetics in patients with solid tumor
# Type: in vivo, human
# Condition Details: human, plasma, 150 mg, 150 mg QD 4/1 (n = 5), nominal time 0 h; read-out: Mean plasma concentration following the last dose on cycle 1 day 28
Measure: concentration at 0 h (ng/mL)
The answer is to be given in ng/mL; state only the numeric part.

## Input Supply recorded concentration at 0 h for Cc1[nH]c(/C=C2\C(=O)Nc3ccc(F)cc32)c(C)c1C(=O)NC[C@H](O)CN1CCOCC1 [compound 1] here.
## Output 99.8

src = patent US20090012085A1
